Entries annotated with measured MIC, K. OXYTOCA
- Tested on: K. oxytoca clinical isolates
- experimentNotes: Broth microdilution MIC, clinical isolate strains (NAUTICA)
- Format: cell-based
- assayContext: clinical isolates, one table line per isolate; unit assumed

structureSmilesString: Cn1nnc(-c2cc(C(=O)O)sc2C(=O)O)n1
MIC, K. OXYTOCA: > 256 mg/L
--
structureSmilesString: O=C(O)c1cc(-c2nnn[nH]2)c(C(=O)O)s1
MIC, K. OXYTOCA: 128 mg/L
--
structureSmilesString: COC(=O)c1cc(-c2nnn(C)n2)c(C(=O)OC)s1
MIC, K. OXYTOCA: 128 mg/L
--
structureSmilesString: O=C(O)c1cc(-c2nnn[nH]2)c(-c2ccc(F)cc2)s1
MIC, K. OXYTOCA: 64 mg/L
--
structureSmilesString: CCOC(=O)c1cc(-c2nnn[nH]2)c(-c2ccc(F)cc2)s1
MIC, K. OXYTOCA: > 64 mg/L
--
structureSmilesString: O=C(O)c1cc(-c2nn[nH]n2)cs1
MIC, K. OXYTOCA: 16 mg/L

* * *

- systemName: recombinant E. coli LpxA (Escherichia coli)
- Construct: 6xHis (C); made in house; host or cells: E. coli BL21 (pET23b)
- Sequence (P0A722 whole entry): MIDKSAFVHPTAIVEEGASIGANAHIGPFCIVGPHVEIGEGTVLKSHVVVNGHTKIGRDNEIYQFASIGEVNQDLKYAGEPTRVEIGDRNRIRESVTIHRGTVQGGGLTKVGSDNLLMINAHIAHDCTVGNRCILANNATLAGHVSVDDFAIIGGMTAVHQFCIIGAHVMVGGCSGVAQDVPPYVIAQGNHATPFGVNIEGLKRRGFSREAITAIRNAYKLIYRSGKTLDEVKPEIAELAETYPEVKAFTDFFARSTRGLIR
- experimentNotes: LpxA assay: acyl-UDP-GlcNAc formation from UDP-[3H]GlcNAc, TLC
- Format: biochemical
- assayContext: 5 mM compound; FIG. 8

molecule: c1ccc(Cc2cc(-c3nnn[nH]3)c(Cc3ccccc3)s2)cc1 [DNM-131O]
systemName: recombinant E. coli LpxA (Escherichia coli)
inhibition at 5000 µM: > 80%
--
molecule: CCOC(=O)c1cccc(-c2cc(-c3nnn[nH]3)c(-c3cccc(C(=O)OCC)c3)s2)c1 [DNM-131I]
systemName: recombinant E. coli LpxA (Escherichia coli)
inhibition at 5000 µM: > 80%
--
molecule: Cn1nnnc1-c1cc(-c2ccc(C(=O)O)cc2)sc1-c1ccc(C(=O)O)cc1 [DNM-133E]
systemName: recombinant E. coli LpxA (Escherichia coli)
inhibition at 5000 µM: > 70%
--
molecule: Cn1nnc(-c2cc(-c3cccc(O)c3)sc2-c2cccc(O)c2)n1 [DNM-132A]
systemName: recombinant E. coli LpxA (Escherichia coli)
inhibition at 5000 µM: > 80%
--
molecule: Cn1nnc(-c2cc(C(=O)O)sc2-c2cccc3ccccc23)n1 [DNM-123H]
systemName: recombinant E. coli LpxA (Escherichia coli)
inhibition at 5000 µM: > 80%
--
molecule: O=C(O)c1ccc(-c2cc(-c3nnn[nH]3)c(-c3ccc(C(=O)O)cc3)s2)cc1 [DNM-131E]
systemName: recombinant E. coli LpxA (Escherichia coli)
inhibition at 5000 µM: > 80%
--
molecule: Cn1nnnc1-c1cc(-c2cccc(O)c2)sc1-c1cccc(O)c1 [DNM-133A]
systemName: recombinant E. coli LpxA (Escherichia coli)
inhibition at 5000 µM: > 80%
--
molecule: Cn1nnc(-c2cc(-c3cccc(C(=O)O)c3)sc2-c2cccc(C(=O)O)c2)n1 [DNM-132G]
systemName: recombinant E. coli LpxA (Escherichia coli)
inhibition at 5000 µM: > 80%
--
molecule: COc1cccc(-c2sc(C(=O)O)cc2-c2nnnn2C)c1 [DNM-122D]
systemName: recombinant E. coli LpxA (Escherichia coli)
inhibition at 5000 µM: > 70%
